System: Salmonella Thyphimurium MDR BN10055
Assay: MIC of antibiotics ± test compound (MIC ratio), micro-broth dilution
Type: cell-based, Salmonella enterica serovar Typhimurium
Details: chloramphenicol; compound at MIC/4; Set 2
measure: MIC ratio (*) on BN10055 Chl

Consider the reported MIC ratio (*) on BN10055 Chl for these compounds:
compound="CC(C)=CCC/C(C)=C/CC/C(C)=C/CNCCCNCCCCN [Compound 19]" study_target="Salmonella Thyphimurium MDR BN10055" measure="MIC ratio (*) on BN10055 Chl" result=8-16
compound="CC(C)=CCCC(C)=CCNCCCN(CCCN)CCCN (racemic) [Compound 11]" study_target="Salmonella Thyphimurium MDR BN10055" measure="MIC ratio (*) on BN10055 Chl" result=16
compound="CCN(CC)CCNCCCNC/C=C(\\C)CCC=C(C)C [Compound 21]" study_target="Salmonella Thyphimurium MDR BN10055" measure="MIC ratio (*) on BN10055 Chl" result=16
compound="CC(C)=CCC/C(C)=C/CC/C(C)=C/CNCCCNCCCN [Compound 20]" study_target="Salmonella Thyphimurium MDR BN10055" measure="MIC ratio (*) on BN10055 Chl" result=8

Exam item: Enter reported MIC ratio (*) on BN10055 Chl observed with Salmonella Thyphimurium MDR BN10055 for CC(C)=CCC/C(C)=C/CC/C(C)=C/CNCCCN(CCCN)CCCN [Compound 9]
Marked response: 16

Exam item: Enter reported MIC ratio (*) on BN10055 Chl observed with Salmonella Thyphimurium MDR BN10055 for CC(C)=CCC/C(C)=C/CC/C(C)=C/CNCCCNCCCCNCCCN [Compound 8]
Marked response: 16-32

Exam item: Enter reported MIC ratio (*) on BN10055 Chl observed with Salmonella Thyphimurium MDR BN10055 for CC(C)=CCC/C(C)=C/CNCCCN [Compound 12]
Marked response: 8

Exam item: Enter reported MIC ratio (*) on BN10055 Chl observed with Salmonella Thyphimurium MDR BN10055 for CC(C)=CCC/C(C)=C/CC/C(C)=C/CNCCCN1CCOCC1 [Compound 23]
Marked response: 8

Exam item: Enter reported MIC ratio (*) on BN10055 Chl observed with Salmonella Thyphimurium MDR BN10055 for CC(C)=CCC/C(C)=C/CC/C(C)=C/CNCCCCN [Compound 17]
Marked response: 8

Exam item: Enter reported MIC ratio (*) on BN10055 Chl observed with Salmonella Thyphimurium MDR BN10055 for CC(C)=CCC/C(C)=C/CNCCCN(C)CCCN [Compound 13]
Marked response: 8-16

Exam item: Enter reported MIC ratio (*) on BN10055 Chl observed with Salmonella Thyphimurium MDR BN10055 for CC(C)=CCC/C(C)=C/CC/C(C)=C/CNCCCN(C)CCCN [Compound 14]
Marked response: 16

Exam item: Enter reported MIC ratio (*) on BN10055 Chl observed with Salmonella Thyphimurium MDR BN10055 for CC(C)=CCC/C(C)=C/CC/C(C)=C/CNCCCCCN [Compound 18]
Marked response: 4-8

Exam item: Enter reported MIC ratio (*) on BN10055 Chl observed with Salmonella Thyphimurium MDR BN10055 for CC(C)=CCCC(C)=CCNCCCNCCCCNCCCN (racemic) [Compound 10]
Marked response: 16

Exam item: Enter reported MIC ratio (*) on BN10055 Chl observed with Salmonella Thyphimurium MDR BN10055 for CC(C)=CCC/C(C)=C/CC/C(C)=C/CNCCCN1CCN(CCCN)CC1 [Compound 15]
Marked response: 8

Exam item: Enter reported MIC ratio (*) on BN10055 Chl observed with Salmonella Thyphimurium MDR BN10055 for CC(C)=CCC/C(C)=C/CC/C(C)=C/CNCCCN1CCCC1 [Compound 22]
Marked response: 16

Exam item: Enter reported MIC ratio (*) on BN10055 Chl observed with Salmonella Thyphimurium MDR BN10055 for CC(C)=CCC/C(C)=C/CC/C(C)=C/CNCCCN [Compound 16]
Marked response: 16-32

* * *

System: strain IV2571223 - Escherichia coli pig (sensible)
Assay: MIC of antibiotics in the presence and absence of test compound, veterinary strains
Assay type: cell-based
Design: unit not given beside the values
Conditions: compound at the Concentration (μM) (2-50)
Consider the following compounds and their measured MIC for strain IV2571223, Doxycycline in the presence of test compound readings.
Form field (numeric): enter value without unit.

compound=CC(C)=CCC/C(C)=C/CC/C(C)=C/CNCCNCCNCCNCCNCCN quantitative_result=0.0625
compound=CC(C)=CCC/C(C)=C/CC/C(C)=C/CNCCCN(C)CCCN quantitative_result=0.03125
compound="CC(C)=CCCC(C)=CCNCCCN(CCCN)CCCN (racemic)" quantitative_result=0.03125

Exam item: Fill blank: measured MIC for strain IV2571223, Doxycycline in the presence of test compound of the compound CC(C)=CCCC(C)=CCNCCCNCCCCNCCCN (racemic) is ____.
Marked response: 0.0625

Exam item: Fill blank: measured MIC for strain IV2571223, Doxycycline in the presence of test compound of the compound CC(C)=CCC/C(C)=C/CC/C(C)=C/CNCCCN1CCN(CCCN)CC1 is ____.
Marked response: 0.0625

* * *

Consider the following molecules and their measured MIC ratio(*) on BN10055ΔacrB Nal readings.
Test system: BN10055ΔacrB
Test: MIC of antibiotics ± test compound (MIC ratio), micro-broth dilution
Assay type: cell-based, Salmonella enterica serovar Typhimurium
Conditions: nalidixic acid; compound at MIC/4; Set 1
Form field (numeric): enter value without unit.

molecule="CC(C)=CCC/C(C)=C/CC/C(C)=C/CNCCCNCCCCNCCCN [Compound 8]" quantitative_result=4
molecule="CC(C)=CCCC(C)=CCNCCCNCCCCNCCCN (racemic) [Compound 10]" quantitative_result=2
molecule="CC(C)=CCC/C(C)=C/CC/C(C)=C/CNCCCN(CCCN)CCCN [Compound 9]" quantitative_result=8

Kindly review the next molecule as well.
Exam item: Fill blank: measured MIC ratio(*) on BN10055ΔacrB Nal of the molecule CC(C)=CCCC(C)=CCNCCCN(CCCN)CCCN (racemic) [Compound 11] is ____.
Marked response: 2

* * *

System: Salmonella Thyphimurium MDR BN10055
Experiment: MIC of antibiotics ± test compound (MIC ratio), micro-broth dilution
Type: cell-based, Salmonella enterica serovar Typhimurium
Settings: chloramphenicol; compound at MIC/4; Set 1
Consider the following compounds and their measured MIC ratio (*) on BN10055 Chl readings.
Form field (numeric): enter value without unit.

Consider the reported MIC ratio (*) on BN10055 Chl for these compounds:
compound="CC(C)=CCCC(C)=CCNCCCNCCCCNCCCN (racemic) [Compound 10]" quantitative_result=16
compound="CC(C)=CCC/C(C)=C/CC/C(C)=C/CNCCCN(CCCN)CCCN [Compound 9]" quantitative_result=16

Kindly review the next compound as well.
Exam item: Fill blank: measured MIC ratio (*) on BN10055 Chl of the compound CC(C)=CCCC(C)=CCNCCCN(CCCN)CCCN (racemic) [Compound 11] is ____.
Marked response: 16

* * *

System: Salmonella Thyphimurium MDR BN10055
Test: MIC of antibiotics ± test compound (MIC ratio), micro-broth dilution
Type: cell-based, Salmonella enterica serovar Typhimurium
Settings: doxycycline; compound at MIC/4; Set 2
measure: MIC ratio (*) on BN10055 Dox

Consider the reported MIC ratio (*) on BN10055 Dox for these compounds:
compound=CC(C)=CCC/C(C)=C/CC/C(C)=C/CNCCCN1CCCC1 measure="MIC ratio (*) on BN10055 Dox" result=32
compound=CC(C)=CCC/C(C)=C/CNCCCN(C)CCCN measure="MIC ratio (*) on BN10055 Dox" result=16
compound=CC(C)=CCC/C(C)=C/CC/C(C)=C/CNCCCN(CCCN)CCCN measure="MIC ratio (*) on BN10055 Dox" result=8
compound=CC(C)=CCC/C(C)=C/CC/C(C)=C/CNCCCNCCCCN measure="MIC ratio (*) on BN10055 Dox" result=16

Exam item: Enter reported MIC ratio (*) on BN10055 Dox observed with Salmonella Thyphimurium MDR BN10055 for CC(C)=CCC/C(C)=C/CNCCCN
Marked response: 16

Exam item: Enter reported MIC ratio (*) on BN10055 Dox observed with Salmonella Thyphimurium MDR BN10055 for CC(C)=CCC/C(C)=C/CC/C(C)=C/CNCCCN1CCN(CCCN)CC1
Marked response: 32

Exam item: Enter reported MIC ratio (*) on BN10055 Dox observed with Salmonella Thyphimurium MDR BN10055 for CCN(CC)CCNCCCNC/C=C(\C)CCC=C(C)C
Marked response: 32

* * *

Consider the following compounds and their measured MIC ratio(*) on BN10055 Ery readings.
Tested on: Salmonella Thyphimurium MDR BN10055
Experiment: MIC of antibiotics ± test compound (MIC ratio), micro-broth dilution
Assay type: cell-based, Salmonella enterica serovar Typhimurium
Settings: erythromycin; compound at MIC/4; Set 1
Form field (numeric): enter value without unit.

Consider the reported MIC ratio(*) on BN10055 Ery for these compounds:
compound="CC(C)=CCCC(C)=CCNCCCN(CCCN)CCCN (racemic)" study_target="Salmonella Thyphimurium MDR BN10055" quantitative_result=8
compound=CC(C)=CCC/C(C)=C/CC/C(C)=C/CNCCCNCCCCNCCCN study_target="Salmonella Thyphimurium MDR BN10055" quantitative_result=8
compound=CC(C)=CCC/C(C)=C/CC/C(C)=C/CNCCCN(CCCN)CCCN study_target="Salmonella Thyphimurium MDR BN10055" quantitative_result=32

Kindly review the next compound as well.
Exam item: Fill blank: measured MIC ratio(*) on BN10055 Ery of the compound CC(C)=CCCC(C)=CCNCCCNCCCCNCCCN (racemic) is ____.
Marked response: 4
